The values you see were collected from patent US20260226143A1.

assaySystem: T1, aggregated Aβ42 (heterogeneous Aβ 42 aggregate mixture) (human)
T1 construct: Aβ 42 vortexed in water and kept on a nutator for 48 h at room temperature, then coated on plates; also called Aβ aggregates; heterogeneous aggregated Aβ42 species
T1 sequence (peptide, as listed by the source): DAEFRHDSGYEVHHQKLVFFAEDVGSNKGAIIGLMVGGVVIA
assayMethodText: competition ELISA, plate coated with aggregated Aβ42; competitor biotinylated hBP
measureName: IC50 (µg/mL)
Numbers only, in µg/mL.

Use the examples below as a reference point.
[[record]]
binder = "h2931 (antibody, V domains shown, Humanized IgG; only variable domains tied to the name; also called PB-0576) VH: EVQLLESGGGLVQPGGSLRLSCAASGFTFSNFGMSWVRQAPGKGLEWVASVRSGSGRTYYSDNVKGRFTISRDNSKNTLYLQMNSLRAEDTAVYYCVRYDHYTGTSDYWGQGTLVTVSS VL: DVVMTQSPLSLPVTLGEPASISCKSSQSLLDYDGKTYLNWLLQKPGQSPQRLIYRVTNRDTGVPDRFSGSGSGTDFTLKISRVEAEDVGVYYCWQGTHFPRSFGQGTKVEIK"
measurename = "IC50"
numericresult = 6.9

[[record]]
binder = "h2831 (antibody, V domains shown, Humanized IgG; only variable domains tied to the name; also called PB-0575) VH: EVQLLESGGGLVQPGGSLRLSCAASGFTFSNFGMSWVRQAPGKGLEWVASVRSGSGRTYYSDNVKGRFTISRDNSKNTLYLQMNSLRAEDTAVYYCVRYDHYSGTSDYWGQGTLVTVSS VL: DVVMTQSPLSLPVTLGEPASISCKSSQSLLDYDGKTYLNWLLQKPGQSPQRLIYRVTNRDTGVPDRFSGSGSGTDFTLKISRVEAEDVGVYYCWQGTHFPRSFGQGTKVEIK"
measurename = "IC50"
numericresult = 9.91

[[record]]
binder = "h2726 (antibody, V domains shown, Humanized IgG; also called PB-0573) VH: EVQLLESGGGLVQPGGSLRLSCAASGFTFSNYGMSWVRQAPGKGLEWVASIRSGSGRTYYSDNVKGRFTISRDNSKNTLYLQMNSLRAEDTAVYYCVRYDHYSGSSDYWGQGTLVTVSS VL: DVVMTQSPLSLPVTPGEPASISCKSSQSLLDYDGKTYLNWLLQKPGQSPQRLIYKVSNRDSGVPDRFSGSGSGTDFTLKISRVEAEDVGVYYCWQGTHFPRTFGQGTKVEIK"
measurename = "IC50"
numericresult = 9.05


Attention now turns to another entry.
Lookup result for h2731 (antibody, human IgG1, kappa, V domains shown, Heavy chain with or without the C-terminal lysine) VH: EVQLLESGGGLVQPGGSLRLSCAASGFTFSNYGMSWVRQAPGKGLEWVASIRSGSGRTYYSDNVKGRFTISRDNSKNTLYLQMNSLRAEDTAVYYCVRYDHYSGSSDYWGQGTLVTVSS VL: DVVMTQSPLSLPVTLGEPASISCKSSQSLLDYDGKTYLNWLLQKPGQSPQRLIYRVTNRDTGVPDRFSGSGSGTDFTLKISRVEAEDVGVYYCWQGTHFPRSFGQGTKVEIKR ; measured IC50: 5.02
